system: T1, oligopeptide TYPSGHLDM (SEQ ID NO: 96)
T1 construct: Synthetic peptide, part of Loop C of AQP3
T1 peptide: TYPSGHLDM
procedure.summary: ELISA on coated peptide
experimental.readout: binding signal (plate reader)
Just the number, please, no unit after it.

BC-B10 (IgG) (antibody, V domains shown, also called anti AQP3 antibody BC-B10) VH: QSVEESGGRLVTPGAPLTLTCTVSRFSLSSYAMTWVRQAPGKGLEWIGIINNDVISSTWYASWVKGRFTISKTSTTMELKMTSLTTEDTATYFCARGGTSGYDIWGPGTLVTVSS VL: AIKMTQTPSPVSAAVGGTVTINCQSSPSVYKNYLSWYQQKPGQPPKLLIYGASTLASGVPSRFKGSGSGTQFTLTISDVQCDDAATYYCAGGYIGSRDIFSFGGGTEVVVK; 3.96
Antibody C (antibody, mouse IgG2a, kappa, V domains shown, also called anti AQP3 antibody C) VH: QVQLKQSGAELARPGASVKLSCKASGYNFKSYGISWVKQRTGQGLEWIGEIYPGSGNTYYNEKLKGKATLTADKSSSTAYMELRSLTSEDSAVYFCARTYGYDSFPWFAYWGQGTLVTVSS VL: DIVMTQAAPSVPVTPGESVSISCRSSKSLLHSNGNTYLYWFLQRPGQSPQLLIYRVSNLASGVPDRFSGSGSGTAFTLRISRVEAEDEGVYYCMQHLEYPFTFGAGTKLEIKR; 1.79

Could you now consider this next binder?
[Q] Could you tell me which binding signal (plate reader) is on file for BC-H9 (IgG) (antibody, V domains shown, also called anti AQP3 antibody BC-H9) VH: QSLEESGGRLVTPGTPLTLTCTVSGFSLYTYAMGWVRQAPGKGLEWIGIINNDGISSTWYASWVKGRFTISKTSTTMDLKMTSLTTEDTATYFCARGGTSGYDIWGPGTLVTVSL VL: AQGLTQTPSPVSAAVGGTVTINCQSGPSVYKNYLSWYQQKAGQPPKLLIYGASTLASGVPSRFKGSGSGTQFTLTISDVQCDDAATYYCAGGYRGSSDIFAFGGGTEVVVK ?
[A] 3.99

Value source: patent US20220298237A1
